Test system: HeLa
test description: Cytotoxicity against human HeLa cells assessed as reduction in cell viability incubated for 48 hrs by MTT assay
Type: functional, cell-based
# reported IC50; entries follow
The response must be a number in µM with no trailing unit.

Below, each entry is followed by its recorded IC50 result.
| mol smiles | IC50 / µM |
| --- | --- |
| CC1(C)CC[C@]23CC[C@]4(C)[C@H](CC[C@@H]5[C@@]6(C)Cc7nnn(Cc8ccc(Cl)c(Cl)c8)c7C(C)(C)[C@@H]6CC[C@]54C)[C@H]2[C@H]1OC3 | 32.6 |
| COc1cccc(CCn2n[n+](C)c3c2C(C)(C)[C@@H]2CC[C@]4(C)[C@H](CC[C@@H]5[C@H]6[C@H]7OC[C@@]6(CCC7(C)C)CC[C@]54C)[C@@]2(C)C3)c1 | 2.87 |
| C[n+]1nn(CC(c2ccccc2)c2ccccc2)c2c1C[C@]1(C)[C@H]3CC[C@@H]4[C@H]5[C@H]6OC[C@@]5(CCC6(C)C)CC[C@@]4(C)[C@]3(C)CC[C@H]1C2(C)C | 2.67 |
| COc1cc(Cn2n[n+](C)c3c2C(C)(C)[C@@H]2CC[C@]4(C)[C@H](CC[C@@H]5[C@H]6[C@H]7OC[C@@]6(CCC7(C)C)CC[C@]54C)[C@@]2(C)C3)cc(OC)c1OC | 3.8 |

For CC1(C)CC[C@]23CC[C@]4(C)[C@H](CC[C@@H]5[C@@]6(C)Cc7nnn(Cc8cccc(Cl)c8)c7C(C)(C)[C@@H]6CC[C@]54C)[C@H]2[C@H]1OC3 on HeLa, measured IC50 was 34.4
